Values were extracted from patent US11365188B2.

Biological target: JAK3 (Homo sapiens, UniProt P52333)
Sequence (P52333 whole entry, species assumed): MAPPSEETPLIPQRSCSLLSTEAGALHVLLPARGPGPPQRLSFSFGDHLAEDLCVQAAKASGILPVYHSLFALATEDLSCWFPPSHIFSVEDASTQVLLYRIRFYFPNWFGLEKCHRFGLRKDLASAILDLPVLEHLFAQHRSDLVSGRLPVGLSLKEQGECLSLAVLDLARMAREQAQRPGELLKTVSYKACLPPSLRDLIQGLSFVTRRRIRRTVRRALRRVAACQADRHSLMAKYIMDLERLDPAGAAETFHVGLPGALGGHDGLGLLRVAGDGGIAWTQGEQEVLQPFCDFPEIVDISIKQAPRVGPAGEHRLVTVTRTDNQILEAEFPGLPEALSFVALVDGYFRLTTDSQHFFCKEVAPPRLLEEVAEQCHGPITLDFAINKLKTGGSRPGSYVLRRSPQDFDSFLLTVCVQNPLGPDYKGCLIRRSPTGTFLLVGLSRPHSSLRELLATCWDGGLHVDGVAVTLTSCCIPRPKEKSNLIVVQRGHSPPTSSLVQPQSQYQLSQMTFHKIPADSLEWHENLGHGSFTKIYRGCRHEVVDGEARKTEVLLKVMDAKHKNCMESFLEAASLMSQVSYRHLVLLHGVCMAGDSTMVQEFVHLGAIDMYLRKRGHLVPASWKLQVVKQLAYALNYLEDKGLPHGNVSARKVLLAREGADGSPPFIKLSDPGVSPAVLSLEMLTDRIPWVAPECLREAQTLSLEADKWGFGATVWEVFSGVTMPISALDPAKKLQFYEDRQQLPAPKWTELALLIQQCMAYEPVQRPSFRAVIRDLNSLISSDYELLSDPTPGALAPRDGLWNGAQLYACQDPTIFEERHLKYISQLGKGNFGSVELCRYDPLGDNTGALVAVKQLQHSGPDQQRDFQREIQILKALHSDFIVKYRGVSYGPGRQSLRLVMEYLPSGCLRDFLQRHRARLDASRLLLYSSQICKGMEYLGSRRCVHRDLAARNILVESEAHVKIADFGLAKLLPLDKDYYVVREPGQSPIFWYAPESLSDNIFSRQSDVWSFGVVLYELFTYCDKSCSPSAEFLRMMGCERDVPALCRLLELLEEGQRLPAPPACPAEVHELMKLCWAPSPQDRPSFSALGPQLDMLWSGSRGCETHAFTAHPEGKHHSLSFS
Assay: JAK3 Assay (Caliper EZ Reader, fluoresceinated peptide)
Type: biochemical
Conditions: ATP 3.5 μM; JAK3 0.5 nM; 30 minutes at room temperature; read-out: JAK3 inhibition
pIC50: −log10 of the molar value.
Consider the following molecules; for each one, report its pIC50.

Solved cases below.
- Molecule: "CN(c1ncnc2[nH]ccc12)C1CC2(C1)CN(C(=O)Nc1cccc(Cl)c1)C2 [Compound 33]"
  Measured value: "≤ 5.00"
- Molecule: "C#Cc1ccc(C(=O)N2CC3(CC(N(C)c4ncnc5[nH]ccc45)C3)C2)nc1 [Compound 48]"
  Measured value: "5.00 to 6.00"

Hi there! I need pIC50 for each item below, if you can.
1. CCCS(=O)(=O)N1CCC2(CCC(N(C)c3ncnc4c3CCN4)CC2)CC1 [Compound 96]
2. CCC(=O)N1CC2(CC(N(C)c3ncnc4[nH]ccc34)C2)C1 [Compound 5]

// result
1: 5.00 to 6.00; 2: 5.00 to 6.00
